- system: TDP-43 (Mus musculus)
- Construct: N9 cells expressing endogenous TDP-43 were treated with various concentrations of B10; endogenous in cells; host or cells: N9 mouse microglial cells
- Sequence (Q921F2 whole entry): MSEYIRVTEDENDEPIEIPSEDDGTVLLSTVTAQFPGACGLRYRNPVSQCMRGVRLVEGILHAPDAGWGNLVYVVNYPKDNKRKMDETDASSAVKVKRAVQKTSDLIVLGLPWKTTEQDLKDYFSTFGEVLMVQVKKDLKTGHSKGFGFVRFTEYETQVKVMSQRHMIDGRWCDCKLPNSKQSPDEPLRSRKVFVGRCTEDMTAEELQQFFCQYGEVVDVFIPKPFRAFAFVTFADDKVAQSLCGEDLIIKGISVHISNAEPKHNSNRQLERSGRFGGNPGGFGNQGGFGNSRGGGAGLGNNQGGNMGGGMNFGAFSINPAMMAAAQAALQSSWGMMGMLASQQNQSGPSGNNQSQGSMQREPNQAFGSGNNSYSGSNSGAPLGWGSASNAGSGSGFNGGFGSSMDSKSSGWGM
- measurement.notes: InCell Western (ICW) drug screen for TDP-43 levels in N9 cells
- Assay type: cell-based
- experimental.context: N9 cells treated 24 hours, DMSO vehicle control = 100
quantity.kind: % TDP43 level (%)
Kindly answer with a numeric value in %, unit omitted.

Solved entries:
compound	% TDP43 level (%)
OCCN1CCN(CCCN2c3ccccc3Sc3ccc(Cl)cc32)CC1 [B5, Perphenazine]	85
Oc1c(Cl)cc(Cl)c(Cl)c1Cc1c(O)c(Cl)cc(Cl)c1Cl [B10, Hexachlorophene]	63
CO[C@H]1/C=C/O[C@@]2(C)Oc3c(C)c(O)c4c(O)c(c(/C=N/N5CCN(C)CC5)c(O)c4c3C2=O)NC(=O)/C(C)=C\C=C\[C@H](C)[C@H](O)[C@@H](C)[C@@H](O)[C@@H](C)[C@H](OC(C)=O)[C@@H]1C [B6, Rifampicin]	103
Nc1ccc(S(=O)(=O)c2ccc(N)cc2)cc1 [B7, Dapsone]	100

Proceeding to the next compound to report its % TDP43 level.
Problem: Give reported % TDP43 level value for NS(=O)(=O)c1cc2c(cc1C(F)(F)F)NCNS2(=O)=O [B8, Hydroflumethiazide]
Solution: 89
